assay: Luminescence Cell-Based Dose Response HTS to Identify Inhibitors of 5'UTR Stem-Loop Driven Prion Protein mRNA Translation in H4 Neuroglioblastoma Cells. [Related pubchem assays: 1827 (Project Summary), 1813 (Primary HTS)]; type: functional
Activity calls are given as the source filed them.
observed property: EC50

// below: answered compounds
- compound: "COC(=O)c1cn(S(=O)(=O)c2ccccc2)c2ccccc12"
  EC50: "> 120 µM (not active)"
- compound: "Cc1ccc(-n2nc3c(N4CCC(C(=O)NCCc5cccs5)CC4)nnc(C)c3c2C)cc1"
  EC50: "> 120 µM (not active)"
- compound: "O=C(Nc1nc2c(s1)CCCC2)C1COc2ccccc2O1 (stereo unspecified)"
  EC50: "6.51 µM (active)"

### Prompt Given the compound `CC(C)CCn1c(N2CCN(c3cccc(Cl)c3)CC2)nc2c1c(=O)[nH]c(=O)n2C` , what is its reported EC50?
### Response > 60 µM (not active)

### Prompt Given the compound Cc1ccc(C(NC(=O)NC(C)c2ccccc2)C(Cl)(Cl)Cl)cc1F (stereo unspecified) , what is its reported EC50?
### Response 18.7 µM (active)

### Prompt Given the compound `CC(C)(C)OC(=O)N1CC=C2C(C#N)=C(N)C(C#N)(C#N)[C@H](c3cccnc3)[C@H]2C1` , what is its reported EC50?
### Response > 120 µM (not active)

====

Measured EC50 of individual entries
Molecular target: Mucolipin-3 (Homo sapiens)
Sequence (Q8TDD5 whole entry): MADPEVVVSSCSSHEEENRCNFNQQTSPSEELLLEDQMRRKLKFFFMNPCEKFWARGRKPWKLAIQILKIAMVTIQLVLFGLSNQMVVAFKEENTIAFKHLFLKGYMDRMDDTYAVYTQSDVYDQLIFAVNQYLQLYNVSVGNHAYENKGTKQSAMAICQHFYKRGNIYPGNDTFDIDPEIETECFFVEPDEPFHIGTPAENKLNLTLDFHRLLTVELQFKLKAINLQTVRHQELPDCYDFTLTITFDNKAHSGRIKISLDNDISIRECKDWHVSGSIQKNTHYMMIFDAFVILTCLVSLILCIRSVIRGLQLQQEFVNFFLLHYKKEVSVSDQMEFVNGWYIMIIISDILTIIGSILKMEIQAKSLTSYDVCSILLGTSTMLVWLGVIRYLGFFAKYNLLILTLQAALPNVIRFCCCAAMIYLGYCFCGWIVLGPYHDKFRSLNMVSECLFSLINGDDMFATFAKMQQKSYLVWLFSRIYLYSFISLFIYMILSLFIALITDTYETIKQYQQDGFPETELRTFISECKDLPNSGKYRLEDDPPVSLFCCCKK
Test: Dose response cell-based high-throughput screening assay for agonists of the transient receptor potential channel ML3 (TRPML3). [Related pubchem assays: 1526, 1424, 1448 ]
Format: functional
The source made the active and inactive calls.

// below: answered compounds
- compound: "CC(C)Oc1ccc(/C=N/NC(=O)C(CSCc2ccccc2)NC(=O)c2ccc([N+](=O)[O-])cc2)cc1 (centres undefined)"
  obs value: "0.342 µM (active)"
- compound: "CCOC(=O)c1c(CSc2ccc(C)cc2)oc2ccc(O)cc12"
  obs value: "4.33 µM (active)"
- compound: "Cc1cc(C(C)(C)C)oc1C(=O)N(CC(=O)NC1CCCC1)Cc1ccccc1Cl"
  obs value: "> 29.9 µM (not active)"

// moving on: another record for EC50
### Prompt Given the compound `O=C(c1ccccc1F)N(NC(=O)C(O)(c1ccccc1)c1ccccc1)c1ccccc1` , what is its reported EC50?
### Response 10.4 µM (not active)

====

target: DNA dC->dU-editing enzyme APOBEC-3A (Homo sapiens, UniProt P31941); assay: Dose Response confirmation of small molecule APOBEC3A DNA Deaminase Inhibitors via a fluorescence-based single-stranded DNA deaminase assay. [Related pubchem assays (depositor defined):AID493011, AID493024]; format: functional
Sequence (P31941 whole entry): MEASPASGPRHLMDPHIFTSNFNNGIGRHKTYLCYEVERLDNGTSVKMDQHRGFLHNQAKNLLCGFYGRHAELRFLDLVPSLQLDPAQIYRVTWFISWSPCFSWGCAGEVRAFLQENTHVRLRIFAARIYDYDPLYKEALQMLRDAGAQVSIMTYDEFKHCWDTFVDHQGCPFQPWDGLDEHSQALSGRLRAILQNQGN
Activity calls are given as the source filed them.
Measured IC50 of individual entries

// below: answered molecules
- molecule: "COc1ccc([N+](=O)[O-])cc1CSc1ccccn1"
  target: "DNA dC->dU-editing enzyme APOBEC-3A (Homo sapiens, UniProt P31941)"
  observed property: "IC50"
  obs value: "8.44 µM (active)"
- molecule: "O=C(Cc1cccs1)Nc1nnc(Cc2ccccc2)s1"
  target: "DNA dC->dU-editing enzyme APOBEC-3A (Homo sapiens, UniProt P31941)"
  observed property: "IC50"
  obs value: "12 µM (active)"
- molecule: "C[N+](C)(C)CCCNC(=O)c1ccc(C=NO)nc1"
  target: "DNA dC->dU-editing enzyme APOBEC-3A (Homo sapiens, UniProt P31941)"
  observed property: "IC50"
  obs value: "2.7 µM (active)"

### Prompt Given the molecule CCCc1n(CC(O)COC2CCCCC2)c2ccccc2[n+]1CC (centres undefined) , what is its reported IC50?
### Response 3.26 µM (active)

====

Measured IC50 of individual entries
Biological target: UniProtKB P34707
Sequence (P34707 whole entry): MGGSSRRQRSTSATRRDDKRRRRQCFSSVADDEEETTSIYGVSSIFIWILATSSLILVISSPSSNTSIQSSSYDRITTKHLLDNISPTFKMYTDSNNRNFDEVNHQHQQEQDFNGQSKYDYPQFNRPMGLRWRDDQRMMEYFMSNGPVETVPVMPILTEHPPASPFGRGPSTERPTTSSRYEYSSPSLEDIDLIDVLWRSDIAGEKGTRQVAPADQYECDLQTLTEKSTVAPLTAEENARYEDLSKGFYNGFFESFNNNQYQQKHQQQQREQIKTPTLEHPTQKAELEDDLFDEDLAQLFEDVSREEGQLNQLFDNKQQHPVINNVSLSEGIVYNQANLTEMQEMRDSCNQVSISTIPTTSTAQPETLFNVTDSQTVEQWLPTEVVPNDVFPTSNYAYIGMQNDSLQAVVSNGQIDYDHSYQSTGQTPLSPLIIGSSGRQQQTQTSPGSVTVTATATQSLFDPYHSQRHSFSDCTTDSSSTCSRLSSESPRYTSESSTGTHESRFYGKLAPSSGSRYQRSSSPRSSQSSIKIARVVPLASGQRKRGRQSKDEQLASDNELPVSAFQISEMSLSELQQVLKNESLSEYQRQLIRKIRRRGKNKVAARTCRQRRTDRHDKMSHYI
Assay type: functional
Calls of active or inactive are those of the source.

// below: answered compounds
- compound: "O=C(C1CCN(S(=O)(=O)c2c(Cl)cccc2Cl)CC1)N1CCCC1"
  obs value: "> 100 µM (inactive)"
- compound: "CCC1CSC(Nc2ccc(C(=O)/C=C/c3cccc(C)c3)cc2)=N1 (stereo unspecified)"
  obs value: "> 100 µM (inactive)"
- compound: "COc1ccc(Cc2nc(-c3ccc(Cl)cc3)no2)cc1"
  obs value: "> 100 µM (inactive)"
- compound: "O=c1c2ccccc2sc2ccccc12"
  obs value: "59.3 µM (inactive)"
- compound: "COc1ccc(CC(=O)N2CCCC(C)C2)cc1 (stereo unspecified)"
  obs value: "> 100 µM (inactive)"

// moving on: another record for IC50
### Prompt Given the compound COc1ccc(N(C(=O)CNC(=O)c2ccco2)C(C(=O)NC2CCCCC2)c2cccnc2)cc1 (stereo unspecified) , what is its reported IC50?
### Response > 100 µM (inactive)

====

experiment: inhibitors of firefly luciferase expression or activity, dose response, H4 neuroglioma cells, luminescence (AID 1990); format: functional, cell-based
Activity calls are given as the source filed them.
observed property: EC50

// below: answered compounds
- record smiles: "NC(=O)N/N=C/c1ccc2cccc(OCc3ccccc3)c2n1"
  EC50: "17.8 µM (active)"
- record smiles: "Cc1ccc(-n2nc3c(N4CCC(C(=O)NCCc5cccs5)CC4)nnc(C)c3c2C)cc1"
  EC50: "19.2 µM (active)"
- record smiles: "CCc1ccc(-c2nc(C(N)=O)c3nc(O)n(-c4ccccc4OC)c3n2)cc1"
  EC50: "8.19 µM (active)"
- record smiles: "COc1cccc(/C=N/NC(=O)CCCC(=O)NC2CCCCC2)c1"
  EC50: "> 120 µM (not active)"
- record smiles: "Brc1ccccc1-c1nnc2sc(Cc3ccccc3)nn12"
  EC50: "64.7 µM (active)"
- record smiles: "CC(=O)N(C1=C(Cl)C(=O)c2ccccc2C1=O)C1CCCCC1"
  EC50: "9.51 µM (active)"
- record smiles: "COc1ccc(/C=C/C(=O)c2ccc([N+](=O)[O-])o2)cc1OC"
  EC50: "9.14 µM (active)"

### Prompt Given the compound `COc1ccc(C(=O)N/N=C/c2sc3ccccc3c2O)cc1` , what is its reported EC50?
### Response 12.7 µM (active)

====

test: Luminescence Cell-Based Dose Retest to Confirm Inhibitors of Cancer Stem Cells. [Related pubchem assays (depositor defined):AID2717, AID2721]; type: functional; conditions: Homo sapiens
Active and inactive are the calls of the source.
observed property: AC50

// below: answered molecules
- molecule: "Cc1cc(C)cc(CC(Cc2nc3ccccc3[nH]2)c2nc3ccccc3[nH]2)c1 (stereo not given)"
  AC50: "6.69 µM (active)"
- molecule: "CCCOC(=O)c1ccc(Oc2c(C)n[nH]c2-c2ccc(OCC)cc2O)cc1"
  AC50: "3.66 µM (active)"
- molecule: "COc1cc(CNc2ccc(CNc3nc[nH]n3)cc2)ccc1OCc1ccccc1"
  AC50: "2.25 µM (active)"

### Prompt Given the molecule `CCOC(=O)/C(=C\c1ccc([N+](=O)[O-])cc1)C(=O)c1cc(C(C)=O)c(Nc2ccccc2)s1` , what is its reported AC50?
### Response 0.685 µM (active)

### Prompt Given the molecule `CCOC(=O)c1c(CSc2ccc(C)cc2)oc2ccc(O)cc12` , what is its reported AC50?
### Response 3.94 µM (active)
